Experiment: AUC (0 to infinity) in […] at […], po administered as single dose measured on day 3 by HPLC in presence of […]
Format: ADME, organism-based
Set-up: time infinity, route oral
Details: human, plasma

[
  {
    "Query Smiles": "NCCCCN(Cc1nc2ccccc2[nH]1)[C@H]1CCCc2cccnc21",
    "AUC(0-inf) [ng·h/mL]": 1640
  }
]

---

Experiment: Cmax in rat in presence of ritonavir
Format: ADME, organism-based
Settings: in vivo
Readout Label: Cmax (ng/mL)

[
  {
    "Compound": "NCCCCN(Cc1nc2ccccc2[nH]1)[C@H]1CCCc2cccnc21 [MAVORIXAFOR]",
    "Readout Label": "Cmax",
    "Quantitative Result": 158
  }
]

---

Assay: Tmax in […] at […], po administered as single dose measured on day 3 by HPLC in presence of […]
Assay type: ADME, organism-based
Settings: human, in vivo

[
  {
    "Compound": "NCCCCN(Cc1nc2ccccc2[nH]1)[C@H]1CCCc2cccnc21 [MAVORIXAFOR]",
    "Unit Annotation": "h",
    "Tmax": 2
  }
]
